B1: Hairpin Ribozyme (parent)
chain: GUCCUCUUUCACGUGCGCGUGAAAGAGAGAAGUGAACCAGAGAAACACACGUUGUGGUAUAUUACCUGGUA

Variants of: B1
Test: self-cleavage, relative activity (ratio to wild type); higher = more cleavage; co-transcriptional
In this section we review reported self-cleavage values for a set of variants.

{"variant": "U9C G57A", "self-cleavage": 0.167}
{"variant": "G13U U70A", "self-cleavage": 0.771}
{"variant": "U52G U58G", "self-cleavage": 0.498}
{"variant": "A28C G32U", "self-cleavage": 0.0817}
{"variant": "U20A G21C", "self-cleavage": 0.691}
{"variant": "A23G A24U", "self-cleavage": 0.651}
{"variant": "G17U A39C", "self-cleavage": 0.479}
{"variant": "G13A A59G", "self-cleavage": 0.104}
{"variant": "G15A G69U", "self-cleavage": 0.217}
{"variant": "U60G U67G", "self-cleavage": 0.202}
{"variant": "G32C U67C", "self-cleavage": 0.105}
{"variant": "G13U C50U", "self-cleavage": 0.268}
{"variant": "A44G C50A", "self-cleavage": 0.198}
{"variant": "G27A G57A", "self-cleavage": 0.145}
{"variant": "G27A U70A", "self-cleavage": 0.426}
{"variant": "A31C U67G", "self-cleavage": 0.0719}
{"variant": "G19A U33G", "self-cleavage": 0.175}
{"variant": "A43C A64U", "self-cleavage": 0.198}
{"variant": "G15U C48A", "self-cleavage": 0.226}
{"variant": "C48U C50U", "self-cleavage": 0.0683}
{"variant": "C3G G25U", "self-cleavage": 0.138}
{"variant": "A22U G54U", "self-cleavage": 0.518}
{"variant": "C10A G17U", "self-cleavage": 0.681}
{"variant": "A23C G57U", "self-cleavage": 0.29}
{"variant": "C50G G57C", "self-cleavage": 0.181}
{"variant": "A26C G56A", "self-cleavage": 0.163}
{"variant": "U2A A49G", "self-cleavage": 0.188}
{"variant": "C16A G19A", "self-cleavage": 0.991}
{"variant": "C50U U62G", "self-cleavage": 0.158}
{"variant": "G56A U70G", "self-cleavage": 0.254}
{"variant": "G29C A43G", "self-cleavage": 0.261}
{"variant": "C6A C12U", "self-cleavage": 0.512}
{"variant": "A30G C65A", "self-cleavage": 0.148}
{"variant": "C38A G57A", "self-cleavage": 0.0809}
{"variant": "G1A U63G", "self-cleavage": 0.284}
{"variant": "G19U A31G", "self-cleavage": 0.624}
{"variant": "G21A A49C", "self-cleavage": 0.233}
{"variant": "G21U A43G", "self-cleavage": 0.282}
{"variant": "U20C U53G", "self-cleavage": 0.708}
{"variant": "A11C A61C", "self-cleavage": 0.24}
{"variant": "A24U C48G", "self-cleavage": 0.245}
{"variant": "C4U A11G", "self-cleavage": 0.425}
{"variant": "G19C U33G", "self-cleavage": 0.0947}
{"variant": "A31G A36U", "self-cleavage": 0.306}
{"variant": "A23G A36C", "self-cleavage": 0.69}
{"variant": "U9G U70G", "self-cleavage": 0.539}

Data provenance: the RNAGym collection of RNA variant scans (doi:10.7554/elife.80360)
